tested on: Staphylococcus aureus; test: Antibacterial activity against methicillin-sensitive Staphylococcus aureus ATCC 29213 after 16 to 20 hrs by broth microdilution method; format: functional
measurement kind: MIC

// known answers, use as guide
compound | target desc | MIC
Oc1ccc(-c2nc(-c3ccc(Oc4ccc(F)cc4)cc3)no2)cc1O | Staphylococcus aureus | 4 µg/mL
Nc1ccc(-c2nc(-c3ccc(Oc4ccc(F)cc4)cc3)no2)cc1 | Staphylococcus aureus | ≥ 128 µg/mL
CCCCNc1c[nH]nc1-c1nc(-c2ccc(Oc3ccc(C(F)(F)F)cc3)cc2)no1 | Staphylococcus aureus | ≥ 128 µg/mL
CC(C)Nc1c[nH]nc1-c1nc(-c2ccc(Oc3ccccc3)cc2)no1 | Staphylococcus aureus | 0.5 µg/mL

Cl.c1ccc(Oc2ccc(-c3noc(C4CCCN4)n3)cc2)cc1 (stereo unspecified) yielded MIC of 64 µg/mL

Reported MIC ( `CC(=O)N1CCC(c2nc(-c3ccc(Oc4ccc(F)cc4)cc3)no2)CC1` ) = ≥ 128 µg/mL

###

tested on: Streptococcus oralis; experiment: Antibacterial activity against Streptococcus oralis ATCC 9811 after 16 to 20 hrs by broth microdilution method; format: functional
# MIC listing for each entry below

Illustrative cases are given below, each with its answer.
sample smiles | target desc | measurement kind | measured value
Fc1ccc(Oc2ccc(-c3noc(-c4n[nH]cc4Cl)n3)cc2)cc1 | Streptococcus oralis | MIC | > 128 µg/mL
FC(F)(F)c1ccc(Oc2ccc(-c3noc(-c4c[nH]cn4)n3)cc2)cc1 | Streptococcus oralis | MIC | > 128 µg/mL
Oc1ccc(-c2nc(-c3ccc(Oc4ccc(C(F)(F)F)cc4)cc3)no2)cc1 | Streptococcus oralis | MIC | 32 µg/mL
CC(=O)NC[C@H]1CN(c2ccc(N3CCOCC3)c(F)c2)C(=O)O1 | Streptococcus oralis | MIC | 1 µg/mL
FC(F)(F)c1ccc(Oc2ccc(-c3noc(-c4n[nH]cc4Cl)n3)cc2)cc1 | Streptococcus oralis | MIC | > 128 µg/mL

// MIC lookup, compound = `FC(F)(F)c1ccc(Oc2ccc(-c3noc(-c4ccc5[nH]ccc5c4)n3)cc2)cc1` , result: 128 µg/mL

Looking up `CC(C)Nc1c[nH]nc1-c1nc(-c2ccc(Oc3ccc(C(F)(F)F)cc3)cc2)no1` , I found its MIC recorded as > 128 µg/mL

Field MIC (entry `C#Cc1c[nH]nc1-c1nc(-c2ccc(Oc3ccc(C(F)(F)F)cc3)cc2)no1` ) reads > 128 µg/mL

###

test system: Enterococcus faecalis; assay: Antibacterial activity against Enterococcus faecalis ATCC 29212 after 16 to 20 hrs by broth microdilution method; assay type: functional
measurement kind: MIC

sample smiles | target desc | MIC
Oc1ccc(-c2nc(-c3ccc(Oc4ccc(C(F)(F)F)cc4)cc3)no2)cc1 | Enterococcus faecalis | 2 µg/mL
FC(F)(F)c1ccc(Oc2ccc(-c3noc(-c4n[nH]cc4Cl)n3)cc2)cc1 | Enterococcus faecalis | > 128 µg/mL
Fc1ccc(Oc2ccc(-c3noc(-c4n[nH]cc4Cl)n3)cc2)cc1 | Enterococcus faecalis | > 128 µg/mL
C#Cc1c[nH]nc1-c1nc(-c2ccc(Oc3ccc(C(F)(F)F)cc3)cc2)no1 | Enterococcus faecalis | > 128 µg/mL
CC(C)Nc1c[nH]nc1-c1nc(-c2ccc(Oc3ccc(C(F)(F)F)cc3)cc2)no1 | Enterococcus faecalis | > 128 µg/mL

# evaluate next
The measured MIC that `CN[C@H](CC(C)C)C(=O)N[C@H]1C(=O)N[C@@H](CC(N)=O)C(=O)N[C@H]2C(=O)N[C@H]3C(=O)N[C@H](C(=O)N[C@H](C(=O)O)c4cc(O)cc(O)c4-c4cc3ccc4O)[C@H](O)c3ccc(c(Cl)c3)Oc3cc2cc(c3O[C@@H]2O[C@H](CO)[C@@H](O)[C@H](O)[C@H]2O[C@H]2C[C@](C)(N)[C@H](O)[C@H](C)O2)Oc2ccc(cc2Cl)[C@H]1O` showed for Enterococcus faecalis is 2 µg/mL
